- target.entity: GlcNAc(b1-2)[GlcNAc(b1-4)]Man(a1-3)[GlcNAc(b1-2)Man(a1-6)]Man(b1-4)GlcNAc(b1-4)GlcNAc
- test.summary: glycan array binding signal (z-score within array); higher = stronger binding
- protocol.conditions: glycan notation: IUPAC condensed, linker removed
This is one part of a sample in which the strongest signals are shown more often than they occur.
Item-by-item account of glycan array binding signal (z-score)
Respond numerically, and do not add a unit to the figure.

Task item: Which glycan array binding signal (z-score) is reported for this binder? Apa (Mycobacterium tuberculosis), Rv1860 (protein) MHQVDPNLTRRKGRLAALAIAAMASASLVTVAVPATANADPEPAPPVPTTAASPPSTAAAPPAPATPVAPPPPAAANTPNAQPGDPNAAPPPADPNAPPPPVIAPNAPQPVRIDNPVGGFSFALPAGWVESDAAHFDYGSALLSKTTGDPPFPGQPPPVANDTRIVLGRLDQKLYASAEATDSKAAARLGSDMGEFYMPYPGTRINQETVSLDANGVSGSASYYEVKFSDPSKPNGQIWTGVIGSPAANAPDAGPPQRWFVVWLGTANNPVDKGAAKALAESIRPLVAPPPAPAPAPAEPAPAPAPAGEVAPTPTTPTPQRTLPA
Reply: -0.083

Further cases:
Task item: # lookup: glycan array binding signal (z-score) of Epa22 (Candida glabrata) (protein) MGSSHHHHHHSSGLVPRGSHMKRALSSQNPFGYPIGCSPQSTNVIPGLTMELYSYPIVSGTPPNCYDASYVDPEYPRTGYLKRKMIGKSTGVTGSLNYKFSVEKACMVKYGNLPAGYNYNEPLTVSNFTMLLYGYFKPQTSGIHTFFVNADDLLYINFGAGNAFDCCKREDSKFKLGEYVAYDIWHVDSSKNKVSLNLEKDVYYPIRMFFNNIGKDSSLDLSFSVNGAVEHITDFSGYLYSVPDQPDACPAPIGYDTTCK
Reply: -0.368

Hey, just so you know, these numbers are from the supplement of paper PMC8728848.
